// provenance: patent US20260070987A1

target: equine FcRn (large alpha subunit p51) / equine beta-2-microglobulin complex, biotinylated (equine) (UniProt P30441); experiment: SPR (Biacore), pH 6
parameter: Kd (nM)
Unit nM implied. Number only.

Task: Which Kd reading was recorded for the binder equine IgG4 K311E (antibody, part only; not given: variable domains, not shown: another chain or arm of the molecule; small tags and cut ends) constant: ASTTAPKVFPLASHSAATSGSTVALGCLVSSYFPEPVTVSWNSGALTSGVHTFPSVLQSSGLYSLSSMVTVPASSLKSQTYICNVAHPASSTKVDKKIVIKECNGGCPAECLQVGPSVFIFPPKPKDVLMISRTPTVTCVVVDVGHDFPDVQFNWYVDGVETHTATTEPKQEQFNSTYRVVSVLPIQHEDWLSGKEFKCKVNNKALPAPVERTISKPTGQPREPQVYVLAPHRDELSKNKVSVTCLVKDFYPTDIDIEWKSNGQPEPETKYSTTPAQLDSDGSYFLYSKLTVETNRWQQGTTFTCAVMHEALHNHYTEKSVSKSPGK ?
Output: 75.2
